- System: P. falciparum DD2 (chloroquine-resistant)
- procedure-summary: Anti-malarial activity, P. falciparum DD2 culture, 72 hour, DNA content by flow cytometry
- Format: cell-based
- experimental-context: Plasmodium falciparum, synchronized ring-stage parasites
attribute-measured: IC50 (nM)

# molecule, IC50 / nM
measured = [
    ("N=C(N)NCCSc1cc(SCCNC(=N)N)c(C(F)(F)F)cc1NC(=O)c1cc(C(=O)Nc2cc(C(F)(F)F)c(SCCNC(=N)N)cc2SCCNC(=N)N)ncn1 [Compound 114]", 656),
    ("CC(C)N1CCc2ccc(NC(=O)c3cc(C(=O)Nc4ccc5c(c4)CCN(C(C)C)CC5)ncn3)cc2CC1 [Compound 147]", 829),
    ("N=C(N)NCCc1cc(Br)cc(C#Cc2cc(C#Cc3cc(Br)cc(CCNC(=N)N)c3)cc(C(F)(F)F)c2)c1 [Compound 179]", 795),
]

###

- procedure-summary: in vitro
- Format: cell-based
attribute-measured: EC50 (µg/mL)

Reference set, count: 2
# compound, EC50 [µg/mL]
data = [
    ("N=C(N)N1CCC(Oc2cc(OC3CCN(C(=N)N)C3)c(C(F)(F)F)cc2NC(=O)c2cc(C(=O)Nc3cc(C(F)(F)F)c(O[C@@H]4CCN(C(=N)N)C4)cc3O[C@@H]3CCN(C(=N)N)C3)ncn2)C1 (stereo partly drawn) [Compound 111]", 65),
    ("O=C(Nc1ccc(C2CCNCC2)cc1)c1cc(C(=O)Nc2ccc(C3CCNCC3)cc2)ncn1 [Compound 208]", 12),
]

A: c1cc(N2CCNCC2)ccc1-c1ccc(-c2ccc(N3CCNCC3)cc2)s1 [Compound 252]
B: N#Cc1cccc(C(=O)Nc2cc(C(F)(F)F)cc(NC(=O)c3cc(C(=O)Nc4cc(C(F)(F)F)cc(NC(=O)c5cccc(C#N)c5)c4O[C@@H]4CCNC4)ncn3)c2O[C@@H]2CCNC2)c1 [Compound 186]
Inquiry: Compare A and B by numeric EC50 and name the larger one. Give the label under which the chosen entry appears.
Reply text: B

I: FC(F)(F)c1ccc(CN2CCNCC2)cc1Oc1ccc(Oc2cc(CN3CCNCC3)ccc2C(F)(F)F)cc1 [Compound 158]
II: N=C(N)NCCN1CCc2ccc(NC(=O)c3cc(C(=O)Nc4ccc5c(c4)CCN(CCNC(=N)N)CC5)ncn3)cc2CC1 [Compound 150]
Inquiry: For the pair I and II , which entry has the numerically smaller recorded EC50? Give the label under which the chosen entry appears.
Reply text: I

###

- procedure-summary: in vitro
- Assay type: cell-based
attribute-measured: EC50 (µg/mL)

# compound, unit-of-measurement, EC50
rows = [
    ("c1cc(-c2ccc(N3CCNCC3)nc2)cc(-c2cccc(-c3ccc(N4CCNCC4)nc3)c2)c1 [Compound 319]", "µg/mL", 52),
    ("NCCSc1c(NC(=O)c2ccccc2)cc(C(F)(F)F)cc1NC(=O)c1cc(C(=O)Nc2cc(C(F)(F)F)cc(NC(=O)c3ccccc3)c2SCCN)ncn1 [Compound 304]", "µg/mL", 3),
    ("N=C(N)NCCSc1cc(SCCN)c(NC(=O)c2cc(C(=O)Nc3cc(C(F)(F)F)c(SCCNC(=N)N)cc3SCCN)ncn2)cc1C(F)(F)F [Compound 115]", "µg/mL", 35),
    ("c1nc(-c2ccc(N3CCNCC3)cc2)cc(-c2ccc(N3CCNCC3)cc2)n1 [Compound 154]", "µg/mL", 352),
]

P: N=C(N)N1CCN(c2ccc(-c3ccc(-c4ccc(N5CCN(C(=N)N)CC5)cc4)s3)cc2)CC1 [Compound 253]
Q: N=C(N)N1CCN(c2ccc(-c3cccc(-c4ccc(N5CCN(C(=N)N)CC5)nc4)c3)cn2)CC1 [Compound 258]
Inquiry: Compare P and Q by numeric EC50 and name the larger one. Give the label under which the chosen entry appears.
Reply text: Q
